Record: compiled Ki on UniProtKB P29275 from multiple reports.

Please review the following examples before continuing.
Nc1nc(-c2ccco2)ncc1C(=O)NCc1ccccc1O; 50 nM
Cc1cc(-c2c(-c3cccc(C#N)c3)nn3ccc(C(=O)N[C@H]4CN(C)C[C@H]4O)nc23)cc(C)n1; 32 nM
Cc1cc(-c2c(-c3cccc(C#N)c3)nn3ccc(NC(C)(C)C)nc23)cc(Cl)n1; 113 nM
CCn1c(=O)c2c(C)c(Cn3cn[nH]c3=O)sc2n(CCC(F)(F)F)c1=O; 12 nM
Cc1cc(-c2c(-c3cccc(C#N)c3)nn3ccc(C(=O)N[C@@H](C)C(C)(C)O)nc23)cc(CO)n1; 28 nM
Cc1cc(-c2c(-c3cccc(C#N)c3)nn3ccc(C(=O)NC(C)(C)C)nc23)cc(N)n1; 71 nM
Cc1cc(-c2c(-c3cccc(C#N)c3)nn3ccc(N)nc23)cc(C)[n+]1[O-]; 2 nM
COc1cc(CNC(=O)c2cnc(-c3ccco3)nc2N)cc(OC)c1; 5140 nM

Log: UniProtKB P29275, compound CC(=O)Nc1ccn2nc(-c3cccc(C#N)c3)c(-c3cc(C)nc(Cl)c3)c2n1 , Ki = 14 nM

Log: UniProtKB P29275, compound Nc1nc(-c2ccco2)ncc1C(=O)NCc1ccccc1F , Ki = 215 nM

Log: UniProtKB P29275, compound Cc1cc(-c2c(-c3cccc(C#N)c3)nn3ccc(NCCC(C)(C)O)nc23)cc(Cl)n1 , Ki = 19 nM

Log: UniProtKB P29275, compound Cc1cc(-c2c(-c3cccc(C#N)c3)nn3ccc(NCCO)nc23)cc(Cl)n1 , Ki = 4 nM

Log: UniProtKB P29275, compound Cc1cc(-c2c(-c3cccc(C#N)c3)nn3ccc(C(=O)N[C@H]4C[C@@](C)(O)C4)nc23)cc(C)n1 , Ki = 23 nM

Log: UniProtKB P29275, compound CC(C)(C)OC(=O)N1CCC[C@H]1CNc1ccn2nc(-c3ccco3)c(C#N)c2n1 , Ki = 1750 nM

Log: UniProtKB P29275, compound Cc1cccnc1CN1CCN(c2ccn3nc(-c4cccc(F)c4)c(C#N)c3n2)CC1 , Ki = 4600 nM

Log: UniProtKB P29275, compound Nc1nc(-c2cccc(F)c2)ncc1C(=O)NCc1ccccc1Cl , Ki = 2970 nM

Log: UniProtKB P29275, compound CCOc1cccc(F)c1CNC(=O)c1cnc(-c2cccc(F)c2)nc1N , Ki = 341 nM

---

Record: compiled Ki on Adenosine receptor A2b (Homo sapiens, UniProt P29275) from multiple reports.
Response field label takes yes when Ki is strictly below 100 nM and no in all other cases.

CCn1c(=O)c2c(C)c(CN3CCNC3=O)sc2n(CCOC)c1=O; yes

Prompt line: Record Cc1cc(-c2c(-c3cccc(C#N)c3)nn3ccc(C(=O)N[C@@H]4CCCNC4)nc23)cc(Cl)n1 : is its Ki strictly below 100 nM?
Response line: yes

Prompt line: Record N#Cc1c(-c2ccccc2F)nn2ccc(NCc3ccccc3)nc12 : is its Ki strictly below 100 nM?
Response line: no

Prompt line: Record Cc1cc(-c2c(-c3cccc(C#N)c3)nn3ccc(C(=O)N[C@H](C)[C@H](O)CO)nc23)cc(Cl)n1 : is its Ki strictly below 100 nM?
Response line: yes

Prompt line: Record Nc1nc(-c2cccc(F)c2)ncc1C(=O)NCc1c(Cl)cccc1Cl : is its Ki strictly below 100 nM?
Response line: no

Prompt line: Record Cc1cccnc1CNC(=O)c1nnc(-c2cccc(F)c2)nc1N : is its Ki strictly below 100 nM?
Response line: no

Prompt line: Record Cc1cc(-c2c(-c3cccc(C#N)c3)nn3ccc(N[C@@H](C)[C@H](O)CO)nc23)cc(Cl)n1 : is its Ki strictly below 100 nM?
Response line: yes

Prompt line: Record COc1cc(-c2c(-c3cccc(C#N)c3)nn3ccc(NCC(C)(C)O)nc23)cc(C)n1 : is its Ki strictly below 100 nM?
Response line: no
